All figures here come from patent US8722723B2.

# Tested on: luciferase (Luc)
# Assay: Reporter assay: Hela cells transfected with human RORα1 expression vector and luciferase (Luc) reporter vector; Luc activity corrected with β-Gal activity
# Format: cell-based, firefly
# Set-up: key: β-Gal-corrected Luc activity; smaller = inhibition, larger = promotion
# Run Parameters: test compound 1 μM, human RORα1 expression vector, rev-DR2/TK-Luc reporter, about 1 day, smaller number = inhibitory, larger = promoting
Endpoint Label: activity of Luc corrected for the transfection efficiency with the β-Gal activity

# Molecule, Reported
measured = [
    ("O=C(O)CCCc1ccc(N2Cc3ccc(F)cc3C2=O)cc1 [Compound 29]", 0.0),
    ("CN(C)c1ccc2c(c1)CN(c1ccc(C3CCCCC3)cc1)C2=O [Compound 11]", 2.1),
    ("Cc1ccc([N+](=O)[O-])c(C(=O)Nc2ccc(CCCC(=O)O)cc2)c1 [Compound 40]", 0.8),
    ("CN(C)c1ccc2c(c1)C(=O)N(c1ccc(CCCC(=O)O)cc1)C2 [Compound 18]", 0.0),
    ("CN(C)c1ccc2c(c1)C(=O)N(c1ccc(CCCC(=O)OC(C)(C)C)cc1)C2 [Compound 31]", 0.1),
    ("CCOC(=O)C=Cc1ccc(N2Cc3ccccc3C2=O)cc1 [Compound 23]", 0.6),
    ("CCCc1ccc(N2Cc3ccc(N(C)C)cc3C2=O)cc1 [Compound 2]", 2.8),
    ("COc1ccc(N2Cc3cccc(N(C)C)c3C2=O)cc1 [Compound 14]", 3.1),
    ("O=C(O)C=Cc1ccc(N2Cc3ccccc3C2=O)cc1 [Compound 24]", 0.5),
    ("CCCCCCCCc1ccc(N2Cc3ccc(N(C)C)cc3C2=O)cc1 [Compound 10]", 0.3),
    ("CN(C)c1ccc2c(c1)C(=O)N(c1ccc(OCC(=O)O)cc1)C2 [Compound 28]", 0.2),
    ("CCOC(=O)CCCc1ccc(N2Cc3ccc(N(C)C)cc3C2=O)cc1 [Compound 17]", 0),
    ("CCCCCCCc1ccc(N2Cc3cc(N(C)C)ccc3C2=O)cc1 [Compound 7]", 1.1),
]
